- target: T1, neuropilin-1 (NRP1) on HEK293 cells overexpressing NRP1 (UniProt O14786 22-923, limits assumed)
- T1 construct: whole, on cells
- assayDetails: flow cytometry, HEK293-NRP1 vs HEK293
This listing pairs binders with measured 100 nM FACS (MFI Ratio).
Output: the number by itself.

Form: binder = NRP1-2 (VHH) VHH: EVQLVESGGGLVQPGGSLRLSCAASGGTFTKQTMGWFRQAPGKEREFVATIWWTFDAPYYADSVKGRFTISADNSKNTAYLQMNSLKPEDTAVYYCAAYQAGWGDWGQGTLVTVSS ; 100 nM FACS (MFI Ratio) = 15.7

Form: binder = NRP1-21 (VHH) VHH: EVQLVESGGGLVQPGGSLRLSCAASGRSRYGMGWFRQAPGKEREFVAAITRSGKTTYYADSVKGRFTISADNSKNTAYLQMNSLKPEDTAVYYCARRLLSGSPSRSYYFDYWGQGTLVTVSS ; 100 nM FACS (MFI Ratio) = 1

Form: binder = NRP1-41 (VHH) VHH: EVQLVESGGGLVQPGGSLRLSCAASGRFSRINSMGWFRQAPGKERESVAAISWNGGSIYYADSVKGRFTISADNSKNTAYLQMNSLKPEDTAVYYCAAGSPSRLVNMWQYNWGQGTLVTVSS ; 100 nM FACS (MFI Ratio) = 6.1

Form: binder = NRP1-211 (antibody, IgG2, V domains shown) VH: EVQLLESGGGLVQPGGSLRLYCAASGFTFGSYGMSWVRQAPGKGLEWVSSISGSGGSTYYTDSVKGRFTISRDNSKNTLYLQMNSLRAEDTAVYYCVRALAGRRDHWGQGTLVTVSS VL: DIQMTQSPSSLSASVGDRVTITCRASQTISNYVNWYQQKPGKAPKLLIYAASSLHAGVPSRFSGSGSGTDFTLTISSLQPEDFATYYCQQGYSTPLTFGGGTKVEIK ; 100 nM FACS (MFI Ratio) = 3.8

Form: binder = NRP1-7 (VHH) VHH: EVQLVESGGGLVQPGGSLRLSCAASGRIFIIYAMGWFRQAPGKERELVAAITRTGGRPCYADSVKGRFTISADNSKNTAYLQMNSLKPEDTAVYYCAARRMLSPEGAHPDWGQGTLVTVSS ; 100 nM FACS (MFI Ratio) = 233

Form: binder = NRP1-258 (antibody, IgG2, V domains shown) VH: EVQLLESGGGLVQPGGSLRLSCAASGFRFGNYAMSWVRQAPGKGLEWVSAISGSAGRTYYADSVKGRFTISRDNSKNTLYLQMNSLRAEDTAVYYCARAPFQSRIGLAGTRRHKRDNFDQWGQGTLVTVSS VL: DIQMTQSPSSLSASVGDRVTITCRASQSIDNFLNWYQQKPGKAPKLLIYGASKLQRGVPSRFSGSGSGTDFTLTISSLQPEDFATYYCQQSYSSPPVTFGGGTKVEIK ; 100 nM FACS (MFI Ratio) = 0.7

Form: binder = NRP1-42 (VHH) VHH: EVQLVESGGGLVQPGGSLRLSCAASGRTISNYDMGWFRQAPGKEREWVASINWGDGNTYYADSVKGRFTISADNSKNTAYLQMNSLKPEDTAVYYCARAPTYYYDSSGYYYAYWGQGTLVTVSS ; 100 nM FACS (MFI Ratio) = 4
